I'd be grateful if you could share measured melting point for these entries.

Challenge: What melting point value was documented for this compound, COc1ccc(/C=N/n2nnc3c(sc4nc(C)cc(C)c43)c2=O)cc1 [Compound 8c] ?
Response given: 240 to 242 °C

Challenge: Query (compound): Cc1cc(C)c2c(N)c(C(=O)N/N=C/c3ccc(Cl)cc3)sc2n1 [Compound 7b] ; field requested: melting point
Response given: 280 to 282 °C

Challenge: # input compound: Cc1cc(C)c2c(n1)sc1c(=O)n(/N=C/c3ccc(Cl)cc3)nnc12 [Compound 8b] ; wanted: its melting point
Response given: 255 to 257 °C

Challenge: Can you look up the measured melting point of Cc1cc(C)c2c(N)c(-n3nc(C)cc3C=C=O)sc2n1 [Compound 9b] for me?
Response given: 150 to 152 °C

Challenge: Any idea what melting point was measured for Cc1cc(C)c2c(n1)sc1c(=O)n(N=Cc3ccccc3)nnc12 [Compound 8a] ?
Response given: 300 to 302 °C

Challenge: Recorded melting point of CC1=CC(C)=C(C#N)C2SCN(c3ccccc3)CN12 (racemic) [Compound 4a] , please.
Response given: 180 to 182 °C

Challenge: // melting point lookup, key: CCOC(=O)CSc1nc(C)cc(C)c1C#N [Compound 3b]
Response given: 93 °C

Challenge: Bench note: what melting point did CC1=CC(C)=C(C#N)C2SC(=Cc3ccccc3)C(=O)N12 (racemic) [Compound 2a] show?
Response given: 105 to 107 °C

Challenge: Request the reported melting point associated with CC(=O)N(C(C)=O)n1c(C)nc2c(sc3nc(C)cc(C)c32)c1=O [Compound 10b]
Response given: 133 to 135 °C

Challenge: Returns the measured melting point for the input compound. Input: CC1=CC(C)=C(C#N)C2SCN(Cc3ccccc3)CN12 (racemic) [Compound 4c]
Response given: 125 to 127 °C

###

Could you please report measured Swel (mean difference in rat paw volume between right and left paw) for the items listed next?
- Tested on: carrageenan-induced rat paw oedema
- Method: carrageenan-induced rat paw oedema assay
- Format: in vivo, Sprague–Dawley rats
- Run Conditions: 3 h after carrageenan; dose equivalent to 70 mg kg-1 ibuprofen, DMSO

Challenge: Sample COc1ccc(C=NNC(=O)c2sc3nc(C)cc(C)c3c2N)cc1 [Compound 7c] — what was its Swel (mean difference in rat paw volume between right and left paw)?
Response given: 0.226

Challenge: Find the recorded Swel (mean difference in rat paw volume between right and left paw) belonging to Cc1cc(C)c2c(N)c(C(=O)NN)sc2n1 [Compound 6] and report it.
Response given: 0.332

Challenge: I am curious: what Swel (mean difference in rat paw volume between right and left paw) value has been reported for CSc1nc(C)cc(C)c1C#N [Compound 3a] ?
Response given: 0.476

Challenge: So what does the record say about Swel (mean difference in rat paw volume between right and left paw) for CC1=CC(C)=C(C#N)C2SCN(c3ccccc3)CN12 (racemic) [Compound 4a] ?
Response given: 0.336

Challenge: Form field: reported Swel (mean difference in rat paw volume between right and left paw) of CCOC(=O)c1sc2nc(C)cc(C)c2c1N [Compound 5]
Response given: 0.386

Challenge: Name the reported Swel (mean difference in rat paw volume between right and left paw) value associated with the compound CC1=CC(C)=C(C#N)C2SC(=Cc3ccccc3)C(=O)N12 (racemic) [Compound 2a]
Response given: 0.453

Challenge: # get_value(readout='Swel (mean difference in rat paw volume between right and left paw)', item= Cc1cc(C)c2c(N)c(C(=O)NN=Cc3ccccc3)sc2n1 [Compound 7a] )
Response given: 0.156

Challenge: Return reported Swel (mean difference in rat paw volume between right and left paw); argument: CC1=CC(C)=C(C#N)C2SCN(Cc3ccccc3)CN12 (racemic) [Compound 4c]
Response given: 0.213

Challenge: Recorded Swel (mean difference in rat paw volume between right and left paw) for Cc1cc(C)c2c(n1)sc1c(=O)n(N=Cc3ccccc3)nnc12 [Compound 8a] , please?
Response given: 0.376

Challenge: Data request, read-out Swel (mean difference in rat paw volume between right and left paw), for Cc1cc(C)c2c(N)c(C(=O)N/N=C/c3ccc(Cl)cc3)sc2n1 [Compound 7b]
Response given: 0.25

Challenge: Swel (mean difference in rat paw volume between right and left paw) lookup needed for Cc1cc(C)c2c(n1)sc1c(=O)n(/N=C/c3ccc(Cl)cc3)nnc12 [Compound 8b] , thanks.
Response given: 0.24

Challenge: I'd like to know its Swel (mean difference in rat paw volume between right and left paw). The compound in question is Cc1cc(C)c(C#N)c(=S)[nH]1 [Compound 1]
Response given: 0.33

Challenge: Would you kindly share the measured Swel (mean difference in rat paw volume between right and left paw) for COc1ccc(/C=N/n2nnc3c(sc4nc(C)cc(C)c43)c2=O)cc1 [Compound 8c] ?
Response given: 0.316
